Readings of pEC50 for the listed molecules
- Test system: tumor cells
- method: Mitochondrial membrane potential, JC-1 (read-out 48 h)
- Format: cell-based
- runConditions: Jily cells, JC-1, 48 h; read-out: Mitochondrial membrane potential (read-out 48 h) Jily
pEC50: −log10 of the molar value.

Recorded pEC50, per entry:
| molecule | pEC50 |
| --- | --- |
| COc1ccc2oc(C(=O)c3cccnc3N3CCCCC3)cc2c1 [Example 92] | 7.00 to 8.00 |
| CCOc1ccccc1C(=O)c1oc2ccc(NC(=O)OC(C)(C)C)cc2c1N [Example 51] | < 6.00 |
| CCNc1ncccc1C(=O)c1oc2ccc(Cl)cc2c1N [Example 76] | < 6.00 |
| Nc1c(C(=O)c2cc(F)ccc2N2CCCCC2)sc2ncccc12 [Example 124] | < 6.00 |
| CCOc1ccccc1C(=O)c1oc2ccc([N+](=O)[O-])cc2c1N [Example 59] | 6.00 to 7.00 |
| Nc1c(C(=O)c2cc(F)ccc2N2CCOCC2)sc2ncc([N+](=O)[O-])cc12 [Example 129] | < 6.00 |

Entry CCOc1ccc(F)cc1C(=O)c1cc2cc(OC(=O)N(C)C)ccc2o1 [Example 72] ; pEC50 = 6.00 to 7.00

Record CCOc1ccc(F)cc1C(=O)c1oc2ccc(OC)cc2c1NC(=O)COC [Example 58] . Reported pEC50: 7.00 to 8.00

Recorded pEC50 (molecule CCOc1ccc(F)cc1C(=O)c1oc2ccc(OC)cc2c1NS(C)(=O)=O [Example 54] ): 6.00 to 7.00

* * *

- Test system: tumor cells
- method: Mitochondrial membrane potential, JC-1 (read-out 48 h)
- Assay type: cell-based
- runConditions: Jily cells, JC-1, 48 h; read-out: Mitochondrial membrane potential (read-out 48 h) Jily
pEC50: −log10 of the molar value.
readoutName: pEC50

| compound | pEC50 |
| --- | --- |
| CCOc1ccc(OC)cc1C(=O)c1oc2ccc(Cl)cc2c1N | > 8.00 |
| CCOc1ccc(F)cc1C(=O)c1oc2cnc(C)cc2c1N | 7.00 to 8.00 |

Lookup result for COc1ccc2oc(C(=O)c3cc(F)ccc3-n3ccnc3)cc2c1 ; measured pEC50: < 6.00

Quick note, pEC50 for CCCOc1ccc(OC)cc1C(=O)c1oc2ccc(Cl)cc2c1N landed at 7.00 to 8.00

Sample CCOc1ccc(F)cc1C(=O)c1oc2ccc(OC)cc2c1N ; pEC50 observed: > 8.00

// pEC50 value for CCCOc1ccccc1C(=O)c1sc2nc(C)c(C)cc2c1N : 7.00 to 8.00

For reference, reported pEC50 for CCOc1ccc(F)cc1C(=O)c1oc2ccc(O)cc2c1N stands at > 8.00

The compound CCOc1ccc(F)cc1C(=O)c1cc2cc(OCc3ccccc3)ccc2o1 showed pEC50 equal to < 6.00

According to the records, this compound C=CCOc1ccc(OC)cc1C(=O)c1oc2ccc(Cl)cc2c1N displays pEC50 of 7.00 to 8.00

The measured pEC50 associated with Nc1c(C(=O)c2cc(F)ccc2N2CCOCC2)oc2ccc(Cl)cc12 reads 6.00 to 7.00

* * *

- method: MTS proliferation assay (72 h read-out)
- Assay type: cell-based
- runConditions: MRC5 cells
- Experimental: B) MTS Proliferation Assay The assay is performed in 96 well tissue culture plates. The cells (range: 1.5*10^3-10^4) are seeded out in 80 μl complete medium 24 h prior to compound treatment. The test compounds are added in 20 μl complete medium containing max 5% DMSO. The final compound concentrations in the assays are in the range of 0.001 μM-10 μM. […] Subsequently, the plates are shortly shaked and absorption measured with a microplate-reader at 492 nm. […]
pIC50: −log10 of the molar value.
readoutName: pIC50

| compound | readoutName | assayResult |
| --- | --- | --- |
| C=CCOc1ccc2oc(C(=O)c3cc(F)ccc3OCC)cc2c1 | pIC50 | 7.00 to 8.00 |
| Nc1c(C(=O)c2cccnc2N2CCCNCC2)oc2ccc(Cl)cc12 | pIC50 | < 6.00 |

Form: compound = CCOc1ccc(F)cc1C(=O)c1cc2cc(OCCN(C)C)ccc2o1 ; pIC50 = < 6.00

Just so you know, measured pIC50 for COc1ccc2oc(C(=O)c3cc(F)ccc3N3CCN(C)CC3)cc2c1 came out at 6.00 to 7.00

Lookup result for CN1CCN(c2ncccc2C(=O)c2oc3ccc(Cl)cc3c2N)CC1 ; measured pIC50: < 6.00

Memo: CCOc1ccc(F)cc1C(=O)c1cc2cc(O)ccc2o1 , reported pIC50: 7.00 to 8.00

Lab book: pIC50 of Nc1c(C(=O)c2cc(F)ccc2N2CCCCC2)oc2ccc(Cl)cc12 [Example 101] noted as 6.00 to 7.00

pIC50 measured on CCOc1ccc(F)cc1C(=O)c1cc2cc(OC(C)=O)ccc2o1 = > 8.00

// CCOc1ccccc1C(=O)c1oc2ccc(N)cc2c1N : pIC50 value = < 6.00
